System: HCC1806 cells
Assay: Cell proliferation assay Method B, HCC1806
Type: cell-based
Conditions: Homo sapiens, Breast, 72 hours, read-out: antiproliferative activity IC50, HCC1806
Readings of IC50 for the listed molecules

{"columns": ["molecule", "IC50"],
 "data": [
  ["COc1ncc(-c2nc(N3CCOCC3)c3sc(CN(C)c4ncc(C(=O)NO)cn4)cc3n2)cn1 [Compound 261]", "< 10 nM"],
  ["CNc1ccc(-c2nc(N3CCOCC3)c3sc(CN(C)c4ncc(C(=O)NO)cn4)cc3n2)cn1 [Compound 111]", "10 to 100 nM"],
  ["CN(Cc1cc2nc(-c3ccc(N)cc3)nc(N3CCOCC3)c2s1)c1ncc(C(=O)NO)cn1 [Compound 150]", "10 to 100 nM"],
  ["COc1ccc(-c2nc(N3CCOCC3)c3sc(CN(C)c4ncc(C(=O)NO)cn4)cc3n2)cn1 [Compound 236]", "10 to 100 nM"]
]}

Query molecule follows.
Request: For the molecule CS(=O)(=O)N1CCN(Cc2cc3nc(-c4cccc5[nH]ncc45)nc(N4CCOCC4)c3s2)CC1 [GDC-0941, reference compound] , what IC50 is on record?
Result: > 10000 nM
